Provenance of the data: the NIST ThermoML archive (doi:10.1016/j.jct.2009.06.021)

- conditionSet: 308.15 K; 101.33 kPa; Liquid; Vibrating tube method

molecule	mass density [kg/m3]
CC[S+]([O-])CC [diethyl sulfoxide]	1000.77
ClC(Cl)(Cl)Cl [tetrachloromethane]	1564.83
C[S+](C)[O-] [dimethyl sulfoxide]	1085.32
CCCS(=O)CCC [dipropyl sulfoxide]	949.58

----------
- conditionSet: 303.15 K, Maximal bubble pressure
reportedEndpoint: surface tension liquid-gas (mN/m)

compound	measuredNumber
CCCS(=O)CCC [dipropyl sulfoxide]	32
CC[S+]([O-])CC [diethyl sulfoxide]	34.3
C[S+](C)[O-] [dimethyl sulfoxide]	42
